- Test system: A431 cells (expressing EGFR^WT)
- Assay info: Sulforhodamine B (SRB) cellular antiproliferation assay, A431
- Type: cell-based
- Test settings: Homo sapiens, A-431, 72 h, mean ± SD, read-out: Cellular Antiproliferative Activity (IC50, nM) A431
Measured endpoint: IC50 (nM)

| Compound | Tested on | Measured endpoint | Result value |
| --- | --- | --- | --- |
| C=CC(=O)Nc1cccc(N2C(=O)OC(C)c3cnc(Nc4ccc(N5CCN(C)CC5)cc4OC)nc32)c1 (stereo not drawn) [16a] | A431 cells (expressing EGFR^WT) | IC50 | 821 |
| C=CC(=O)Nc1cccc(N2C(=O)OC(C)(C)c3cnc(Nc4ccc(N5CCN(C)CC5)cc4OC)nc32)c1 [20a] | A431 cells (expressing EGFR^WT) | IC50 | 1270 |
| C=CC(=O)Nc1cccc(N2C(=O)OC(CCC)c3cnc(Nc4ccc(N5CCN(C)CC5)cc4OC)nc32)c1 (stereo not drawn) [16c] | A431 cells (expressing EGFR^WT) | IC50 | 2110 |
| C=CC(=O)Nc1cccc(Nc2nc(Nc3ccc(N4CCN(C(C)=O)CC4)cc3OC)ncc2C(F)(F)F)c1 [compound 7, CO-1686, reference compound] | A431 cells (expressing EGFR^WT) | IC50 | 1120 |
| C=CC(=O)Nc1cccc(N2C(=O)OCc3cnc(Nc4ccc(N5CCN(C)CC5)cc4OC)nc32)c1 [16e] | A431 cells (expressing EGFR^WT) | IC50 | 1070 |
| C=CC(=O)Nc1cccc(N2C(=O)OC(CC)(CC)c3cnc(Nc4ccc(N5CCN(C)CC5)cc4OC)nc32)c1 [20b] | A431 cells (expressing EGFR^WT) | IC50 | 7040 |

I = C=CC(=O)Nc1cccc(N2C(=O)OC(C(C)C)c3cnc(Nc4ccc(N5CCN(C)CC5)cc4OC)nc32)c1 (stereo not drawn) [16d]
II = C=CC(=O)Nc1cccc(N2C(=O)OC(CCC)(CCC)c3cnc(Nc4ccc(N5CCN(C)CC5)cc4OC)nc32)c1 [20c]
III = C=CC(=O)Nc1cccc(N2C(=O)OC(CC)c3cnc(Nc4ccc(N5CCN(C)CC5)cc4OC)nc32)c1 (stereo not drawn) [16b]
// ranking: key=IC50, reverse=True Write the labels out in the order the request specifies.
II, I, III
(II: 6400 nM, I: 1160 nM, III: 554 nM)

* * *

- Tested on: EGFR^WT (Homo sapiens, UniProt P00533)
- Construct: Kinases domain of EGFR^L858R/T790M and EGFR^WT were expressed by using the Bac-to-Bac™ baculovirusexpression system; made in house
- Sequence (P00533 712-979 limits assumed): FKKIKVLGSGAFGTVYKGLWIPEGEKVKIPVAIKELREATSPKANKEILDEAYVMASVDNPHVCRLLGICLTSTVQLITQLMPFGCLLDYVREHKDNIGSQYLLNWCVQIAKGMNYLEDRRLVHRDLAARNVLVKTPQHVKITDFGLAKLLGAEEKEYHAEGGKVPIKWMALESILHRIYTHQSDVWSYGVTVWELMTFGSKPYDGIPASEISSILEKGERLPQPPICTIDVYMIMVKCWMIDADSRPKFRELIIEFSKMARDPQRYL
- Assay info: ELISA-based EGFR-TK enzymatic activity assay (WT)
- Type: biochemical
- Test settings: mean ± SD, at least three determinations, read-out: Enzyme Inhibitory Activity (IC50, nM) WT
Measured endpoint: IC50 (nM)

| Compound | Tested on | Result unit | Result value |
| --- | --- | --- | --- |
| C=CC(=O)Nc1cccc(N2C(=O)OCc3cnc(Nc4ccc(N5CCN(C)CC5)cc4OC)nc32)c1 [16e] | EGFR^WT (Homo sapiens, UniProt P00533) | nM | 24 |
| C=CC(=O)Nc1cccc(N2C(=O)OC(C)(C)c3cnc(Nc4ccc(N5CCN(C)CC5)cc4OC)nc32)c1 [20a] | EGFR^WT (Homo sapiens, UniProt P00533) | nM | 156 |

P = C=CC(=O)Nc1cccc(N2C(=O)OC(CCC)c3cnc(Nc4ccc(N5CCN(C)CC5)cc4OC)nc32)c1 (stereo not shown) [16c]
Q = C=CC(=O)Nc1cccc(N2C(=O)OC(CC)c3cnc(Nc4ccc(N5CCN(C)CC5)cc4OC)nc32)c1 (stereo not shown) [16b]
Which value of IC50 is smaller, the one for P or the one for Q ? Lab note: record the label of whichever item you select.
Q
(Q: 23 nM, P: 224 nM)
